measurement notes: ATG_FoxO_CIS: Attagene CIS-FACTORIAL HepG2 Assay for human Forkhead box O (FoxO) (AID 2282943)
measurement context: HepG2 Attagene cis-reporter, FoxO element, mRNA; actives raise or lower the signal
The source made the active and inactive calls. The calls were made as follows: active = hit-call score of the fitted dose curve at least 0.9, where 1 is the maximum; inactive = score below 0.9.
Possible outcomes: yes for active, no for inactive

INSERT INTO results (compound, qualitative_label) VALUES
  ('CCN(CC)C(=O)C(Cl)=C(C)OP(=O)(OC)OC', 'no'),
  ('O=C(NC(=O)c1c(F)cccc1F)Nc1cc(Cl)c(Oc2ncc(C(F)(F)F)cc2Cl)c(Cl)c1', 'no'),
  ('O=C(O)C1(c2ccc3c(c2)OC[C@H](Cc2ccc(-c4ccccc4)cc2)[C@H]3O)CCCC1', 'no'),
  ('CCC[N+](CCC)(CCC)CCC', 'no'),
  ('CN(C)C(=S)S', 'no'),
  ('CCOP(=O)(OCC)SCCSCC', 'no'),
  ('C[C@@H]1O[C@@H](O[C@H]2C[C@@H](O)[C@]3(CO)[C@H]4[C@H](O)C[C@]5(C)[C@@H](C6=CC(=O)OC6)CC[C@]5(O)[C@@H]4CC[C@]3(O)C2)[C@H](O)[C@H](O)[C@H]1O', 'yes'),
  ('CNC(=O)O/N=C/C(C)(C)S(C)(=O)=O', 'no'),
  ('O=C(N[C@H]1CN2CCC1CC2)c1ccc2c(c1)OCCO2', 'no'),
  ('C#CCOC(=O)/C=C(C)/C=C/CC(C)CCCC(C)C (stereo unspecified)', 'no'),
  ('CS(=O)(=O)c1ccc(C(=O)C2C(=O)CCCC2=O)c(Cl)c1COCC(F)(F)F', 'no');

---

measurement notes: TOX21_p53_BLA_p2_viability: Viability Assessment in the Tox21 HCT-116 p53 Agonism Beta-lactamase Assay, Phase 2 (AID 2283591);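 also: compound exposure lasted 16 h at 37 °C; actives lower the ATP signal meaning cytotoxicity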
Inconclusive results are not listed. Activity calls are given as the source filed them. How the source made its calls: active means hit-call score of the fitted dose curve at least 0.9, where 1 is the maximum; inconclusive means response in the unintended direction; inactive means score below 0.9.
metric name: outcome

INSERT INTO results (compound_structure_string, metric_name, endpoint_result) VALUES
  ('Cc1cccc(N=Nc2ccc(N(C)C)cc2)c1', 'outcome', 'inactive'),
  ('c1ccc(-c2cccc(-c3ccccc3)c2)cc1', 'outcome', 'inactive'),
  ('CCCCCCCCCCCCCl', 'outcome', 'inactive');

---

measurement notes: ATG_E_Box_CIS: Attagene CIS-FACTORIAL HepG2 Assay for human Enhancer Box (E-box) (AID 2282936)
measurement context: HepG2 E-box cis-reporter transcription, actives raise or lower the signal
Calls of active or inactive are those of the source. How the source made its calls: active means hit-call score of the fitted dose curve at least 0.9, where 1 is the maximum; inactive means score below 0.9.
Labels: 1 (active), 0 (inactive)

INSERT INTO assay_data (molecule, qualitative_label) VALUES
  ('FC(F)OCC(F)(F)C(F)(F)F', 0),
  ('O=C(N[C@H]1CN2CCC1CC2)c1ccc2c(c1)OCCO2', 1),
  ('C=CCN=C=S', 0),
  ('OCCN(CCO)CCO', 0),
  ('CCOP(=S)(OCC)SCS(=O)(=O)C(C)(C)C', 0),
  ('O=C(NC(=O)c1c(F)cccc1F)Nc1cc(Cl)c(OC(F)(F)C(F)C(F)(F)F)cc1Cl (configuration not stated)', 0),
  ('CN(CCCC(O)c1cccnc1)N=O (configuration not stated)', 0);

---

measurement notes: ATG_AP_2_CIS: Attagene CIS-FACTORIAL HepG2 Assay for human Activator Protein 2 (AP-2) (AID 2282932)
measurement context: HepG2 AP-2 cis-reporter, Attagene transcription factor profiling; actives raise or lower the signal
Active and inactive are the calls of the source. The calls were made as follows: active = hit-call score of the fitted dose curve at least 0.9, where 1 is the maximum; inactive = score below 0.9.
Outcome codes: 1 (active), -1 (inactive)

INSERT INTO assay_data (compound, qualitative_label) VALUES
  ('COCC(=O)N(c1c(C)cccc1C)[C@H](C)C(=O)OC', -1),
  ('C=CCc1ccccc1O', -1),
  ('CC(C)O.CC(C)O.OCCN(CCO)CCO.OCCN(CCO)CCO.[Ti]', -1),
  ('CN(N=O)c1ccc([N+](=O)[O-])cc1', -1),
  ('CC(C=O)Cc1ccc2c(c1)OCO2 (centres undefined)', -1),
  ('CC1(C)[C@H](/C=C2\CCSC2=O)[C@@H]1C(=O)OCc1coc(Cc2ccccc2)c1', -1),
  ('C=CC(F)(C(F)(F)F)C(F)(F)C(F)(F)F (centres undefined)', -1),
  ('O=C1c2ccccc2C(=O)C1C(=O)C(c1ccccc1)c1ccc(Cl)cc1 (centres undefined)', -1),
  ('CCCCOC(C)=O', -1),
  ('CCOc1cc(C=O)ccc1O', -1),
  ('[F][Sn]([c]1ccccc1)([c]1ccccc1)[c]1ccccc1', 1),
  ('Fc1cccc(Cl)c1CCl', -1),
  ('CC(C)(C)c1cc([N+](=O)[O-])cc(C(C)(C)C)c1O', 1),
  ('OCCN(CCO)CCO', -1),
  ('N#CS', -1),
  ('Cc1cc(C(C)(C)c2ccc(O)c(C)c2)ccc1O', -1),
  ('Oc1cc(Cl)c(Cl)cc1Cl', -1),
  ('CC(c1ccc(O)cc1)c1ccc(O)cc1', -1),
  ('CC(C)(C)c1ccccc1O', -1),
  ('c1ccc(-c2cccc(-c3ccccc3)c2)cc1', -1),
  ('O=C(NC(=O)c1c(F)cccc1F)Nc1cc(Cl)c(F)c(Cl)c1F', -1),
  ('CC(c1ccccc1)(c1ccc(O)cc1)c1ccc(O)cc1', -1),
  ('Cc1cc(-c2cc(C)c(N)c(C)c2)cc(C)c1N', -1),
  ('CCCCCCCCCCCCCl', -1),
  ('Clc1cnc(Oc2ccc(Oc3ncc(Cl)cc3Cl)cc2)c(Cl)c1', -1),
  ('CC[N+](CC)(CC)CC', -1),
  ('CCCCN(CCCC)C(=S)S', -1),
  ('CCCCCCCCCCCCN(C)C', 1),
  ('CC(C)(C#N)N=NC(C)(C)C#N', -1);

---

measurement notes: ATG_EGR_CIS: Attagene CIS-FACTORIAL HepG2 Assay for human Early Growth Response 1 (EGR1) (AID 2282938)
measurement context: HepG2 Attagene CIS-FACTORIAL EGR reporter mRNA; actives raise or lower the signal
Active and inactive are the calls of the source. How the source made its calls: active means hit-call score of the fitted dose curve at least 0.9, where 1 is the maximum; inactive means score below 0.9.
Labels: active, inactive

INSERT INTO measurements (compound, qualitative_label) VALUES
  ('CCCCC(CC)COC(=O)Cl (centres undefined)', 'inactive'),
  ('Cc1ccc2nc3sc(=O)sc3nc2c1', 'inactive'),
  ('CCCCN(CCCC)C(=S)[S-].CCCCN(CCCC)C(=S)[S-].[Ni+2]', 'inactive'),
  ('OC(Cc1ccccc1Cl)(Cn1[nH]cnc1=S)C1(Cl)CC1 (centres undefined)', 'inactive'),
  ('CNC(=O)CSP(=O)(OC)OC', 'inactive'),
  ('C=C(C)C(=O)OCCCCOC(=O)C(=C)C', 'inactive'),
  ('CC(C)CP(=S)(S)CC(C)C', 'inactive'),
  ('NC(=O)c1ccc(N)nc1', 'inactive'),
  ('Clc1cc(C(Cl)(Cl)Cl)cnc1Cl', 'active'),
  ('CCOP(=S)(OCC)SCSc1cc(Cl)ccc1Cl', 'inactive'),
  ('c1ccc2sc(SNC3CCCCC3)nc2c1', 'inactive'),
  ('O=[N+]([O-])c1ccc(Cl)c([N+](=O)[O-])c1', 'active'),
  ('O=C(O)C1(c2ccc3c(c2)OC[C@H](Cc2ccc(-c4ccccc4)cc2)[C@H]3O)CCCC1', 'inactive'),
  ('C#CCOC(=O)/C=C(C)/C=C/CC(C)CCCC(C)C (centres undefined)', 'inactive'),
  ('O=[N+]([O-])c1cc([As](=O)(O)O)ccc1O', 'inactive'),
  ('Oc1c(Cl)cc(Cl)cc1Cl', 'inactive'),
  ('C[CH2][Hg][S]c1ccccc1C(=O)O', 'active'),
  ('O=CCCl', 'active'),
  ('c1cc[c]([Sb]([c]2ccccc2)[c]2ccccc2)cc1', 'inactive'),
  ('CCOC(=O)Cc1ccccc1', 'inactive'),
  ('CC(C)[N+](=O)[O-]', 'inactive'),
  ('C=CCc1ccccc1O', 'inactive'),
  ('CCCCCCCCCCBr', 'inactive'),
  ('CC(C)(C#N)N=NC(C)(C)C#N', 'inactive'),
  ('CC(C)(COCC1CO1)COCC1CO1 (centres undefined)', 'inactive'),
  ('CCCSP(=S)(OCC)Oc1ccc(Cl)cc1Cl (centres undefined)', 'inactive'),
  ('CCOP(=O)(OCC)SCCSCC', 'inactive'),
  ('O=C(O)COc1ccc(Cl)cc1', 'inactive'),
  ('CN(N=O)c1ccc([N+](=O)[O-])cc1', 'inactive'),
  ('CCOC(=O)CCN(SN(C)C(=O)Oc1cccc2c1OC(C)(C)C2)C(C)C', 'inactive'),
  ('CC(C)(c1ccccc1)c1cc(-n2nc3ccccc3n2)c(O)c(C(C)(C)c2ccccc2)c1', 'inactive'),
  ('BrCC(Br)c1ccccc1 (centres undefined)', 'inactive'),
  ('CCCCCCCCCCCCCCC(Br)C(=O)O (centres undefined)', 'active'),
  ('CCCCN(CCCCO)N=O', 'inactive'),
  ('O=C(O)CC(O)(CC(=O)O)C(=O)O', 'inactive'),
  ('C=CC(=O)NC(C)(C)CC(C)=O', 'inactive'),
  ('CCOP(=S)(OCC)SCS(=O)(=O)C(C)(C)C', 'inactive'),
  ('O=NN1CCCCCC1', 'inactive'),
  ('C[N+](C)(C)Cc1ccccc1', 'inactive'),
  ('Cc1cc(C)cc(C)c1', 'inactive'),
  ('Nc1ccc(N)cc1', 'inactive'),
  ('ClCc1ccccc1CCl', 'active'),
  ('CCC[CH2][Sn]([Cl])([Cl])[CH2]CCC', 'active'),
  ('CCNc1nc(NCC)nc(SC)n1', 'inactive'),
  ('O=C(Nc1ccc(Br)cc1)c1cc(Br)cc(Br)c1O', 'active'),
  ('N#Cc1cccnc1', 'inactive'),
  ('CC(C)(C1CCC(O)CC1)C1CCC(O)CC1 (centres undefined)', 'inactive'),
  ('O=C1c2ccccc2C(=O)C1C(=O)C(c1ccccc1)c1ccc(Cl)cc1 (centres undefined)', 'active'),
  ('CN(C)c1ccc(N=O)cc1', 'active'),
  ('O=C(O)COc1cc(Cl)c(Cl)cc1Cl', 'inactive'),
  ('Cc1ccc(OP(=O)(Oc2ccc(C)cc2C)Oc2ccc(C)cc2C)c(C)c1', 'inactive'),
  ('ClCCCCl', 'inactive'),
  ('Cc1cc(-c2cc(C)c(N)c(C)c2)cc(C)c1N', 'inactive'),
  ('CC(C)(c1ccc(O)c(-c2ccccc2)c1)c1ccc(O)c(-c2ccccc2)c1', 'active'),
  ('CCCCN(CCCC)C(=S)S', 'active'),
  ('N#Cc1ccc(Cl)cc1', 'inactive'),
  ('CCOP(=S)(OCC)Oc1ccc(Cl)cc1Cl', 'inactive'),
  ('CCCCC(CC)C(=O)Cl (centres undefined)', 'inactive'),
  ('O=C1C[C@@H]2OCC=C3CN4CC[C@]56c7ccccc7N1[C@H]5[C@H]2[C@H]3C[C@H]46', 'inactive');
